Parameter IC50: see the listing below.
tested on: H2405 cells; test: H2405 Cell Proliferation Assay (1); assay type: cell-based; conditions: Homo sapiens, NCI-H2405

Cc1ccc(NC(=O)c2ccnc(C(C)(C)C#N)c2)cc1-c1cc(-c2ccnc(C(=O)NC3CC3)c2)cnn1    1 to 10 µM
COC(=O)Nc1cc(-c2nccc(-c3cc(NC(=O)c4ccnc(C(C)(C)F)c4)c(F)cc3C)n2)ccn1    0.1 to 0.5 µM

**Q:** What value of IC50 has been recorded for this entry: CNC(=O)c1cc(-c2cncc(-c3cc(NC(=O)c4ccnc(C(C)(C)F)c4)c(F)cc3C)c2)ccn1
**A:** 0.1 to 0.5 µM

**Q:** What IC50 value was documented for this molecule, CNC(=O)c1cc(-c2cncc(-c3cc(NC(=O)c4ccnc(C(C)(C)F)c4)ccc3C)c2)ncn1 ?
**A:** 0.1 to 0.5 µM
